Measured phage binding ELISA signal, listed per entry for reference.
- subject_of_test: T1, PSMA Fab (Fab biotinylated for capture on neutravidin plates (site not given))
- T1 construct: also called Anti-PSMA Fab; 006 PSMA Fab
- method_notes: phage ELISA: biotinylated PSMA Fab on neutravidin plate, clonal phage supernatant, anti-M13 HRP; wells pre-incubated with PSMA antigen as competitor

Sample records with phage binding ELISA signal:
q: Using the record for MRSVCVPSWMCSGF (peptide, not shown: large carriers, Clonal phage of the Peptide-180 library) [Phage-4012] , report its phage binding ELISA signal.
a: 0.176

q: And then APRMCSPPWMCYEL (peptide, not shown: large carriers, Clonal phage of the Peptide-180 library) [Phage-4013] , what is it?
a: 0.0661

q: And then GWRQCEPVWMCSGF (peptide, not shown: large carriers, Clonal phage of the Peptide-180 library) [Phage-4011] , what is it?
a: 0.0672

Next:
q: Using the record for FEVRCVPTWMCAGQ (peptide, not shown: large carriers, Clonal phage of the Peptide-180 library) [Phage-4010] , report its phage binding ELISA signal.
a: 0.069
